experiment: Toxicity in sheep erythrocytes assessed as induction of hemolysis; type: cell-based, Ovis aries, Erythrocyte; conditions: read-out: HD50 (the source's name)
measuredParameter: HC50

Query block: Look up and report measured HC50 for this entry: CC(=O)N[C@H]1[C@H](O[C@H]2CC[C@]3(C)[C@H]4CC=C5[C@@H]6CC(C)(C)[C@@H](O)C[C@]6(C(=O)O)[C@H](O)C[C@@]5(C)[C@]4(C)CC[C@H]3C2(C)C)O[C@H](CO[C@@H]2O[C@H](C)[C@H](O)[C@H](O)[C@H]2O[C@@H]2OC[C@@H](O)[C@H](O)[C@H]2O)[C@@H](O)[C@@H]1O
Result block: > 400 µg/mL

Query block: Give the reported value of HC50 for this record: C=CC(C)(CC/C=C(\CO)C(=O)O[C@H]1C[C@]2(C(=O)O)[C@H](O)C[C@]3(C)C(=CC[C@@H]4[C@@]5(C)CC[C@H](O[C@@H]6O[C@H](CO[C@@H]7O[C@H](C)[C@H](O)[C@H](O)[C@H]7O[C@@H]7OC[C@@H](O)[C@H](O)[C@H]7O)[C@@H](O)[C@H](O)[C@H]6O[C@@H]6O[C@H](CO)[C@@H](O)[C@H](O)[C@H]6O)C(C)(C)[C@@H]5CC[C@]43C)[C@@H]2CC1(C)C)O[C@@H]1O[C@@H](C)[C@H](O)[C@@H](O)[C@@H]1O (some centres not stated)
Result block: > 400 µg/mL

Data provenance is ChEMBL document CHEMBL1150676.
